System: AAMU-Ab
Method Notes: Competitive antigen ELISA, cross-reactivity of AAMU-Ab
Assay type: binding, rabbit
Applied Conditions: read-out: concentration required for 50% inhibition in the competitive antigen ELISA; AAMU-Ab
Quantity Measured: pIC50
Note on pIC50: it is the negative log10 of concentration, concentration in mol/L.

Query :: pIC50 for CC(=O)Nc1c(N)n(C)c(=O)[nH]c1=O [5-Acetamino-6-amino-1-methyluracil] ?
Result :: 5.82
